src = patent US9695193B2

target: PfENT1 (Plasmodium falciparum); construct: expressed in transfected cells; host or cells: fui1Δ yeast (Saccharomyces cerevisiae), co-expressing GFP; format: cell-based; conditions: primary HTS, compounds at 10 μM, 125 μM 5-FUrd
Sequence (Q8IDM6 whole entry): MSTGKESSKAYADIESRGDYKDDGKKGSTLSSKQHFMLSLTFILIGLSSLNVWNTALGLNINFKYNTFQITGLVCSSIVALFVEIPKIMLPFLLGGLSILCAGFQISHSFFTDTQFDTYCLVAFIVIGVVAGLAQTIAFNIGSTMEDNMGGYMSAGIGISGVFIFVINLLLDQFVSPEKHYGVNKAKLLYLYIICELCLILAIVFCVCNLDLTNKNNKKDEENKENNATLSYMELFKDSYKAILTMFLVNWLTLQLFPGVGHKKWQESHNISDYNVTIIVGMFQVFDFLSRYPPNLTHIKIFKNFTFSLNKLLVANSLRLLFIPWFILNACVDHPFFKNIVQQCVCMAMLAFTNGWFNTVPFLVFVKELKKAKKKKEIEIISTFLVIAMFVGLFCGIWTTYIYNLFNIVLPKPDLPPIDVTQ
Note to self: Avg Normalized % maximal activity under 6% means 1.0, ties and anything higher get 0.0.

In [3]: df
Out[3]:
                                   compound  classification
0  COC(=O)c1ccccc1NC(=O)c1cccc(NC(=O)c2ccco2)c1C [compound 33]             0.0
1  C#C[C@]1(O)CC[C@H]2[C@@H]3CCC4=C(CCC(=O)C4)[C@H]3CC[C@@]21C [compound 74]             0.0
2  CCc1nnc(NC(=O)c2sc3nc(C)cc(COC)c3c2N)s1 [compound 108]             1.0
3  COCc1cc(C)nc2sc(C(=O)Nc3ccc(C(=O)OC)cc3)c(N)c12 [compound 119]             1.0
4  CN1CCN(S(=O)(=O)c2ccc(C(=O)Nc3ccccc3)cc2)CC1 [compound 155]             1.0

We now examine a further compound.
-- ask Find out if reported Avg Normalized % maximal activity for O=C(Nc1ccc(C(=O)N2CCCCC2)cc1)c1cc2ccccc2oc1=O [compound 70] is less than 6%
-- reply 0.0
